read-out: Insulin Like Growth Factor 1 (IGF1), IGF1 (gene 3479); test: LTEA_HepaRG_IGF1: Life Technologies and Expression Analysis (LTEA) Assay for Insulin Like Growth Factor 1 (IGF1) using HepaRG (AID 2283506); conditions: mRNA level, 48 h; actives raise or lower the signal
Calls of active or inactive are those of the source. Rule for the calls: active = hit-call score of the fitted dose curve at least 0.9, where 1 is the maximum; inactive = score below 0.9.
Reply using exactly one outcome from 1 for active, -1 for inactive

# compound, class-assignment
rows = [
    ("CCC(C)(C)C(=O)O[C@H]1C[C@@H](C)C=C2C=C[C@H](C)[C@H](CC[C@@H]3C[C@@H](O)CC(=O)O3)[C@H]21", -1),
    ("CC/C(=C\\C(=N/O)C(N)=O)C(C)[N+](=O)[O-] (stereo unspecified)", -1),
    ("C=CCCCCCCCCC(=O)O", -1),
    ("Cc1ccc(C)c(O)c1", -1),
    ("COc1ccc(-n2nc(C(F)F)cc2-c2ccc(S(C)=O)cc2)cc1 (stereo unspecified)", -1),
]

Problem: Give the logged outcome of this assay for the following compound: Clc1nc(Cl)c(Cl)c(Cl)c1Cl
Solution: -1
